All figures here come from PubChem BioAssay AID1159580.

Quick list: normalized growth per entry.
Assay: chemical genetic growth profiling, strain panel (AID 1159580);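 note: tested at 20 µM; growth read once vehicle control cultures reached saturation at 30 °C; 1 = growth at the plate median or of vehicle wells; lower values mean less growth of the strain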
Conditions: S. cerevisiae deletion strains, growth OD, locus YAL040C, strain CLN3, active compounds read low
Out of some 5,500 compounds screened, about 2,000 (36%) were called active. Not shown: some 18% with an inconclusive outcome. Some of the results follow. Where a SMILES comes first, the peptide text is derived from it. The star is where a group is joined. Cbz = O=C(OCc1ccccc1)*
readout.type: normalized growth

C[C@]12CC[C@@H]3c4ccc(O)cc4CC[C@H]3[C@@H]1CC[C@@H]2O :: 1.01 (inactive)
O=c1c(O)c(-c2ccc(O)cc2O)oc2cc(O)cc(O)c12 :: 1.01 (inactive)
CC(C)C[C@H](N)CSSC[C@@H](N)CC(C)C :: 0.965 (inactive)
CSc1nc(N)c2ncn([C@@H]3O[C@H](COP(=O)(O)OP(=O)(O)OP(=O)(O)O)[C@H](O)C3O)c2n1 (some centres not stated) :: 0.978 (inactive)
O=C(NC(Cc1ccccc1)C(=O)CCl)OCc1ccccc1 (configuration not stated) :: 1.03 (inactive)
CCCCCCCCCCCCCCCCCC(=O)OC(CC(=O)O)C[N+](C)(C)C (configuration not stated) :: 0.47 (active)
CC(C)(C)c1cc(/C=C(\C#N)C(N)=S)cc(C(C)(C)C)c1O :: 0.912 (inactive)
CCCCCCCCCC(=O)NC(CN1CCOCC1)[C@H](O)c1ccccc1 (some centres not stated) :: 0.989 (inactive)
Cc1ccc(S(=O)(=O)N[C@@H](Cc2ccccc2)C(=O)CCl)cc1 :: 0.932 (inactive)
NC(N)=NC(=O)c1nc(Cl)c(N2CCCCCC2)nc1N :: 1.09 (inactive)
CC(C)CN(C)c1nc(N)c(C(=O)N=C(N)N)nc1Cl :: 0.968 (inactive)
FC(F)(F)c1cc(CO[C@H]2CCCN[C@H]2c2ccccc2)cc(C(F)(F)F)c1 :: 0.998 (inactive)
O=S(=O)(c1cccc2c(I)cccc12)N1CCCNCC1 :: 0.979 (inactive)
O=c1c(O)c(-c2ccc(O)c(O)c2)oc2cc(O)cc(O)c12 :: 1.07 (inactive)
Cc1ccc(S(=O)(=O)N[C@@H](CCCCN)C(=O)CCl)cc1 :: 1.04 (inactive)
COc1cc2c(cc1O)CC[C@@H]1[C@@H]2CC[C@]2(C)[C@@H](O)CC[C@@H]12 :: 1.02 (inactive)
CN(C)c1nc(N)c(C(=O)N=C(N)N)nc1Cl :: 1 (inactive)
CCN(c1nc(N)c(C(=O)N=C(N)N)nc1Cl)C(C)C :: 1 (inactive)
COc1cc(=O)n(C)c2c(OCC(O)C(C)(C)O)cccc12 (configuration not stated) :: 0.99 (inactive)
CC(C)[C@H](NC(=O)OCc1ccccc1)C(=O)N[C@H](C=O)Cc1ccccc1 (Cbz-Val-Phe-aldehyde) :: 0.961 (inactive)
CCCCCCCCCC[Si](C)(C)CCC(=O)NC(Cc1ccc(C)cc1)c1ccccc1 (configuration not stated) :: 1.03 (inactive)
CC[C@H](NC(=O)c1c(C)c(-c2ccccc2)nc2ccccc12)c1ccccc1 :: 1.03 (inactive)

---

Quick list: normalized growth per entry.
Assay: chemical genetic growth profiling, strain panel (AID 1159580);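 note: tested at 20 µM; growth read once vehicle control cultures reached saturation at 30 °C; 1 = growth at the plate median or of vehicle wells; lower values mean less growth of the strain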
Conditions: S. cerevisiae strains, growth OD, strain wild type, active compounds read low
Hit rate of the full screen: of about 5,500 compounds, about 2,000 (36%) were called active. Inconclusive results (about 18%) are left out. Some of the results follow.
readout.type: normalized growth

CCC(N)C(O)c1ccc(O)c(O)c1 (stereo not drawn) :: 1.02 (inactive)
CC/C(=C(/CC)c1ccc(O)cc1)c1ccc(O)cc1 :: 0.948 (inactive)
O=C1NC(=O)/C(=C/c2ccc(OS(=O)(=O)c3ccc(Cl)cc3)cc2)N1 :: 0.964 (inactive)
Oc1ccc2c(c1)OCC1(O)Cc3cc(O)c(O)cc3C21 (stereo not drawn) :: 1.03 (inactive)
CCOC(=O)N/N=C\c1ccccc1OCC :: 1.01 (inactive)
O=c1cc(-c2ccc(O)cc2)oc2cc(O[C@@H]3O[C@H](CO)[C@@H](O)[C@H](O)[C@H]3O)cc(O)c12 :: 0.993 (inactive)
COc1ccc2c3c1OC1C(O)CC=C4C(C2)N(C)CCC431 (stereo not drawn) :: 1 (inactive)
CC(C)(C)NCC(O)c1cc(O)cc(O)c1 (stereo not drawn) :: 0.993 (inactive)
NC(=NCCC[C@H](N)C(=O)O)N[N+](=O)[O-] :: 1 (inactive)
CCOC(=O)c1sc(S(C)(=O)=O)c2c1CCCC2O (stereo not drawn) :: 1.01 (inactive)
COc1cc(OC)c2c(=O)c(O)c(-c3ccc(OC)c(OC)c3)oc2c1 :: 0.102 (active)
Cc1ccccc1OCC(O)CO (stereo not drawn) :: 1.02 (inactive)
CCN(Cc1ccncc1)C(=O)C(CO)c1ccccc1 (stereo not drawn) :: 0.995 (inactive)
CCC(=O)c1c(O)cc(O)cc1O :: 1.01 (inactive)
O=C1NN=C2C3CC4CC12CC1(C3)C(=O)NN=C41 :: 0.999 (inactive)
C=C1SC(Nc2cccc(C(F)(F)F)c2)=NC12CCCCC2 :: 1 (inactive)
Clc1ccc(C=C2c3ccccc3-c3ccccc32)cc1 :: 0.961 (inactive)
COC(=O)C1OC(=O)C2OC23C1(C)CCC1C2(C)C(OC(C)=O)CC(OC(C)=O)C(C)(C)C2CC(=O)C13C (stereo not drawn) :: 0.983 (inactive)
COc1ccc(-c2oc3c(CC=C(C)C)c(O[C@@H]4O[C@H](CO)[C@@H](O)[C@H](O)[C@H]4O)cc(O)c3c(=O)c2O[C@@H]2O[C@@H](C)[C@H](O)[C@@H](O)[C@H]2O)cc1 :: 1.01 (inactive)
COC(=O)c1c(C)cc(OC)cc1O :: 1 (inactive)
C[N+](C)(C)CC(O)CC(=O)O (stereo not drawn) :: 1.01 (inactive)
CCCCCCCCCCCCCCCCCC(=O)OC(CC(=O)O)C[N+](C)(C)C (stereo not drawn) :: 0.51 (active)
O=C(O)C1=C[C@@H](O)[C@@H](O)[C@H](O)C1 :: 1.02 (inactive)

---

Assay: chemical genetic growth profiling, strain panel (AID 1159580);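 note: tested at 20 µM; growth read once vehicle control cultures reached saturation at 30 °C; 1 = growth at the plate median or of vehicle wells; lower values mean less growth of the strain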
Details: S. cerevisiae deletion strains, growth OD, locus YLR221C, strain rsa3, active compounds read low
Out of some 5,500 compounds screened, about 2,000 (36%) were called active. Inconclusive results (about 18%) are left out. Some of the results follow.
readout.type: normalized growth

C[C@@H]([C@H](O)c1ccccc1)N(C)C :: 1.01 (inactive)
CCC(c1ccc(O)cc1)C(CC)c1ccc(O)cc1 (configuration not stated) :: 0.828 (active)
COc1ccc2c(c1)CCC1C2CC[C@@]2(C)C1CC[C@@H]2O (some centres not stated) :: 0.808 (active)
CCCCOc1cc(C(=O)NCCN(CC)CC)c2ccccc2n1 :: 1.02 (inactive)
CC[n+]1c(-c2ccccc2)c2cc(N)ccc2c2ccc(N)cc21 :: 0.936 (inactive)
CCC(N)C(O)c1ccc(O)c(O)c1 (configuration not stated) :: 1 (inactive)
CC1CC[C@@]2(OC1)O[C@H]1CC3C4CC[C@@H]5C[C@@H](O)CC[C@]5(C)C4CC[C@]3(C)[C@H]1[C@@H]2C (some centres not stated) :: 1.03 (inactive)
OCC(O)C(O)C(O)C(O)C(O)CO (configuration not stated) :: 1.01 (inactive)
CC1CCC2(OC1)OC1CC3C4CC[C@H]5C[C@@H](O)CC[C@]5(C)C4CC(=O)[C@]3(C)C1C2C (some centres not stated) :: 0.994 (inactive)
Oc1cc2c(cc1O)C1c3ccc(O)c(O)c3OCC1(O)C2 (configuration not stated) :: 0.986 (inactive)
COc1ccc2c(c1)CCC1C2CCC2(C)C1C[C@@H](O)C2O (some centres not stated) :: 0.929 (inactive)
Cc1cc(C2CCCCC2)n(O)c(=O)c1 :: 0.0659 (active)
C=CC1C2=CCOC(=O)C2=COC1OC1OC(CO)C(O)C(O)C1O (configuration not stated) :: 1.02 (inactive)
CNC(C)C(O)c1ccccc1 (configuration not stated) :: 1.01 (inactive)
C[C@]12CCC3c4ccc(OS(=O)(=O)O)cc4CCC3C1CC[C@H]2O (some centres not stated) :: 1.02 (inactive)
CC1CC[C@]2(NC1)O[C@H]1CC3C4CC[C@H]5C[C@@H](O)CC[C@]5(C)C4CC[C@]3(C)[C@H]1[C@@H]2C (some centres not stated) :: 0.077 (active)
C[C@]12CCC3c4ccc(O)cc4CCC3C1C[C@@H](O)[C@@H]2O (some centres not stated) :: 1.05 (inactive)
CO[C@@]1(NC(=O)C(C(=O)O)c2ccc(O)cc2)C(=O)N2C(C(=O)O)=C(CSc3nnnn3C)CO[C@@H]21 (some centres not stated) :: 0.945 (inactive)
C[C@]12C=CC(=O)C=C1CCC1C2[C@@H](O)C[C@@]2(C)C1CC[C@]2(O)C(=O)COP(=O)(O)O (some centres not stated) :: 1.01 (inactive)
CCCCCCCCCCCC1=C(O)C(=O)C=C(O)C1=O :: 0.801 (active)
Oc1ccc2c(c1)OCC1(O)Cc3cc(O)c(O)cc3C21 (configuration not stated) :: 1.02 (inactive)
CC(=O)Oc1ccc2c(c1OC(C)=O)OCC1(O)Cc3c(cc(OC(C)=O)c(OC(C)=O)c3OC(C)=O)C21 (configuration not stated) :: 1.03 (inactive)
